# TESTED_SYSTEM: human CB1R (Homo sapiens)
# Construct: host or cells: CHO cells
# Sequence (P21554 whole entry): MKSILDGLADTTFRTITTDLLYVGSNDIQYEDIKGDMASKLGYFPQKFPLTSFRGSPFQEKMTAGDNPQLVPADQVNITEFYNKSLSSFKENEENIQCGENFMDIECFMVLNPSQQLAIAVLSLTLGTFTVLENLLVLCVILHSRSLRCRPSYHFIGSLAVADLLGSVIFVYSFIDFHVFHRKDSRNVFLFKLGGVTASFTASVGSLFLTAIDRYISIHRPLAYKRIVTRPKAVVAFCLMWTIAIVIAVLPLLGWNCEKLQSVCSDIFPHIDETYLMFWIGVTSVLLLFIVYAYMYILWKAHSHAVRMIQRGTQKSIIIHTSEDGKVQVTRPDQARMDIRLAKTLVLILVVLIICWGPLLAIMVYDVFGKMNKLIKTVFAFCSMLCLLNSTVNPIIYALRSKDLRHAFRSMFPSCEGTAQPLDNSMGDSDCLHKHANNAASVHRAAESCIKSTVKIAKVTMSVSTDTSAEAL
# TEST: CB1R mediated modulation of cAMP synthesis
# Type: cell-based
Each entry below carries its reported EC50.

Worked set:
COc1ccccc1-c1n[nH]c(NC(=O)C(C)(C)S(=O)(=O)CC2CC2)n1: > 20 µM
CC(C)(C(=O)Nc1nnc(-c2ccc(O)cc2F)[nH]1)S(=O)(=O)CC1CCC1: 35 µM

Item: `CC(C)CCS(=O)(=O)C(C)(C)C(=O)Nc1cc(C2(CO)CC2)no1` | EC50: > 20 µM

====

# TESTED_SYSTEM: human CB1R (Homo sapiens)
# Construct: host or cells: CHO cells
# TEST: CB1R mediated modulation of cAMP synthesis
# Format: cell-based
READOUT_LABEL: EC50

CC(C)(C(=O)Nc1cc(C2(CO)CCC2)no1)S(=O)(=O)C1CCOCC1: > 50 µM
COc1ccc(-c2nnc(NC(=O)C(C)(C)S(=O)(=O)C3CCOCC3)[nH]2)cc1: > 20 µM
COc1ccc(-c2nnc(NC(=O)C(C)(C)S(=O)(=O)CC3CC3)[nH]2)cc1: > 50 µM
CC[C@H](C)S(=O)(=O)C(C)(C)C(=O)Nc1nnc(-c2ccc(OC)cc2)[nH]1: > 50 µM

Record `CC(C)(O)c1cc(NC(=O)C(C)(C)S(=O)(=O)C2CCOCC2)on1` has human CB1R (Homo sapiens) EC50 equal to > 50 µM

====

# TESTED_SYSTEM: human CB2R (Homo sapiens, UniProt P34972)
# Construct: host or cells: CHO cells
# Sequence (P34972 whole entry): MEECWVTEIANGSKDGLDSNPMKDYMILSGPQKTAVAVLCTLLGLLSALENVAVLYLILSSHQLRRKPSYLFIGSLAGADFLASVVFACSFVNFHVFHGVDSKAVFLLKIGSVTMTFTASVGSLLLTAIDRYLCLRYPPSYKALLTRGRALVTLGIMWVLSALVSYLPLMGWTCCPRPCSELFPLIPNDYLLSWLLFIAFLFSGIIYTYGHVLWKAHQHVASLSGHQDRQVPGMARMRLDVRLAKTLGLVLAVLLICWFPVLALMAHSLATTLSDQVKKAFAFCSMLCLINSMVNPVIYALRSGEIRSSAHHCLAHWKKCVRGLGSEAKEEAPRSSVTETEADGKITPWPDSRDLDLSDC
# TEST: CB2R mediated modulation of cAMP synthesis
# Type: cell-based
Each entry below carries its reported pEC50.
Please note pEC50 is a logarithmic value: minus log10 of concentration in mol/L. Answer with that number alone.

Item: `COc1ccc(-c2nnc(NC(=O)C(C)(C)S(=O)(=O)CC(C)C)[nH]2)cc1` | pEC50: 7.16

Item: `CC(C)(O)c1cc(NC(=O)C(C)(C)S(=O)(=O)C2CCOCC2)on1` | pEC50: 7.06

Item: `CC(C)(CO)c1cc(NC(=O)C(C)(C)S(=O)(=O)C2CCN(S(C)(=O)=O)CC2)no1` | pEC50: 7.04

Ref: patent US8048899B2
